- protocol: Cytotoxicity against MT4 cells after 4 days by MTT method
- Assay type: cell-based
- assay.setup: human
# CC50 at 96 h values compiled below

molecule: Cc1c(C(C)c2c(F)cccc2F)nc(N(C)C)[nH]c1=O (stereo unspecified)
observed.value: > 17 µM
//
molecule: CCCNc1nc(C(C)c2c(F)cccc2F)c(C)c(=O)[nH]1 (stereo unspecified)
observed.value: 35 µM
//
molecule: Cc1c(C(C)c2c(Cl)cccc2Cl)nc(N(C)C)[nH]c1=O (stereo unspecified)
observed.value: 35 µM

// next item, CC50 at 96 h requested
(Q) I'd like to know its CC50 at 96 h. The molecule in question is O=C1Nc2ccc(Cl)cc2C(C#CC2CC2)(C(F)(F)F)O1 (single isomer, unassigned)
(A) > 0.3 µM

###

- protocol: Inhibition of HIV1 reverse transcriptase Y1811 mutant
- Parameters: species or system Human immunodeficiency virus 1
# Ki values compiled below

Consider the following illustrative entries.
compound: Cc1c(C(C)c2c(F)cccc2F)nc(N2CCCCC2)[nH]c1=O (stereo unspecified)
observation.type: Ki
observed.value: > 20 µM
--
compound: Cc1c(Cc2c(F)cccc2F)nc(N2CCN(c3ccccn3)CC2)[nH]c1=O
observation.type: Ki
observed.value: > 20 µM
--
compound: O=c1cc(Cc2c(F)cccc2F)nc(N2CCSCC2)[nH]1
observation.type: Ki
observed.value: 0.4 µM
--
compound: Cc1c(Cc2c(F)cccc2F)nc(N2CCOCC2)[nH]c1=O
observation.type: Ki
observed.value: > 20 µM
--
compound: Cc1c(Cc2c(F)cccc2F)nc(N(C)C)[nH]c1=O
observation.type: Ki
observed.value: > 20 µM

(Q) I'd like to know its Ki. The compound in question is O=c1cc(Cc2c(F)cccc2F)nc(N2CCOCC2)[nH]1
(A) > 20 µM

(Q) I'd like to know its Ki. The compound in question is Cc1c(C(C)c2c(F)cccc2F)nc(N2CCSCC2)[nH]c1=O (stereo unspecified)
(A) > 20 µM

###

- subject.of.test: Human immunodeficiency virus type 1 reverse transcriptase (Human immunodeficiency virus 1, UniProt Q72547, V179D)
- protocol: Inhibition of HIV1 reverse transcriptase V179D mutant
Response field label: string, one of true (Ki strictly below 2000 nM) or false.

Some entries whose results are on file:
compound: CCc1c(C(C)c2c(F)cccc2F)nc(N(C)C)[nH]c1=O (stereo not given)
class.label: true
--
compound: Cc1c(C(C)c2c(F)cccc2F)nc(N2CCSCC2)[nH]c1=O (stereo not given)
class.label: true
--
compound: Cc1c(Cc2c(F)cccc2F)nc(N2CCN(C)CC2)[nH]c1=O
class.label: false
--
compound: CN(C)c1nc(Cc2c(F)cccc2F)cc(=O)[nH]1
class.label: false

(Q) Lab note: Ki threshold 2000 nM. Does this compound come in strictly under it? Cc1c(C(C)c2c(F)cccc2F)nc(N2CCCCC2)[nH]c1=O (stereo not given)
(A) true

(Q) Lab note: Ki threshold 2000 nM. Does this compound come in strictly under it? Cc1c(Cc2c(F)cccc2F)nc(N2CCN(c3ccccn3)CC2)[nH]c1=O
(A) true

(Q) Lab note: Ki threshold 2000 nM. Does this compound come in strictly under it? CCC(c1cc(=O)[nH]c(N(C)C)n1)c1c(F)cccc1F (stereo not given)
(A) true

(Q) Lab note: Ki threshold 2000 nM. Does this compound come in strictly under it? O=c1cc(Cc2c(F)cccc2F)nc(N2CCSCC2)[nH]1
(A) false

(Q) Lab note: Ki threshold 2000 nM. Does this compound come in strictly under it? CCC(c1nc(N(C)C)[nH]c(=O)c1C)c1c(F)cccc1F (stereo not given)
(A) false

(Q) Lab note: Ki threshold 2000 nM. Does this compound come in strictly under it? Cc1c(Cc2c(F)cccc2F)nc(N2CCOCC2)[nH]c1=O
(A) false

(Q) Lab note: Ki threshold 2000 nM. Does this compound come in strictly under it? Cc1c(C(C)c2c(F)cccc2F)nc(N2CCOCC2)[nH]c1=O (stereo not given)
(A) false

(Q) Lab note: Ki threshold 2000 nM. Does this compound come in strictly under it? Cc1c(Cc2c(F)cccc2F)nc(N(C)C)[nH]c1=O
(A) true

###

- protocol: Cytotoxicity against MT4 cells after 4 days by MTT method
- Format: cell-based
- assay.setup: human
observation.type: CC50 at 96 h

Consider the following illustrative entries.
compound: Cc1c(Cc2c(F)cccc2F)nc(N2CCCC(C)C2)[nH]c1=O (stereo unspecified)
CC50 at 96 h: > 75 µM

compound: CCN(CC)c1nc(Cc2c(F)cccc2F)c(C)c(=O)[nH]1
CC50 at 96 h: > 81 µM

compound: Cc1c(Cc2c(F)cccc2F)nc(N2CCN(c3ccccn3)CC2)[nH]c1=O
CC50 at 96 h: > 63 µM

compound: Cc1c(Cc2c(F)cccc2F)nc(N(C)c2ccccc2)[nH]c1=O
CC50 at 96 h: > 73 µM

(Q) I'd like to know its CC50 at 96 h. The compound in question is Cc1c(Cc2c(F)cccc2N2CCCC2)nc(N2CCCC2)[nH]c1=O
(A) > 70 µM

(Q) I'd like to know its CC50 at 96 h. The compound in question is O=c1cc(Cc2c(F)cccc2N2CCCC2)nc(N2CCCC2)[nH]1
(A) > 73 µM

(Q) I'd like to know its CC50 at 96 h. The compound in question is O=c1cc(Cc2c(F)cccc2F)nc(-n2cccc2)[nH]1
(A) > 87 µM

###

- subject.of.test: Human immunodeficiency virus type 1 reverse transcriptase (Human immunodeficiency virus 1, UniProt Q72547, V106A)
- protocol: Inhibition of HIV1 reverse transcriptase V106A mutant
# pKi values compiled below
Worth noting: pKi values are minus log10 of concentrations stated in mol/L.

Consider the following illustrative entries.
molecule: Cc1c(Cc2c(F)cccc2F)nc(N2CCCCCC2)[nH]c1=O
pKi: 6.30

molecule: Cc1c(C(C)c2c(F)cccc2F)nc(N2CCCCC2)[nH]c1=O (stereo unspecified)
pKi: 7.70

molecule: Cc1c(C(C)c2c(F)cccc2F)nc(N(C)C)[nH]c1=O (stereo unspecified)
pKi: 7.00

molecule: CCCN(C)c1nc(Cc2c(F)cccc2F)c(C)c(=O)[nH]1
pKi: 8.10

// next item, pKi requested
(Q) I'd like to know its pKi. The molecule in question is CCc1c(C(C)c2c(F)cccc2F)nc(N(C)C)[nH]c1=O (stereo unspecified)
(A) 7.22

###

- protocol: Cytotoxicity against MT4 cells after 4 days by MTT method
- Assay type: cell-based
- assay.setup: human
observation.type: CC50 at 96 h

molecule: Cc1c(Cc2c(F)cccc2F)nc(N2CCC(C)CC2)[nH]c1=O
CC50 at 96 h: > 75 µM

molecule: CN1CCN(c2nc(Cc3c(F)cccc3F)cc(=O)[nH]2)CC1
CC50 at 96 h: > 78 µM

molecule: CCN(C)c1nc(Cc2c(F)cccc2F)cc(=O)[nH]1
CC50 at 96 h: > 89 µM

molecule: CC1CCCN(c2nc(Cc3c(F)cccc3F)cc(=O)[nH]2)C1 (stereo unspecified)
CC50 at 96 h: > 78 µM

molecule: Cc1c(Cc2c(F)cccc2F)nc(N2CCCCC2C)[nH]c1=O (stereo unspecified)
CC50 at 96 h: 75 µM

molecule: O=c1cc(Cc2c(F)cccc2F)nc(N2CCOCC2)[nH]1
CC50 at 96 h: > 81 µM

(Q) I'd like to know its CC50 at 96 h. The molecule in question is Cc1c(Cc2c(F)cccc2F)nc(N2CCC3(CC2)OCCO3)[nH]c1=O
(A) > 66 µM

(Q) I'd like to know its CC50 at 96 h. The molecule in question is Cc1c(C(C)c2c(F)cccc2F)nc(N2CCOCC2)[nH]c1=O (stereo unspecified)
(A) > 74 µM

(Q) I'd like to know its CC50 at 96 h. The molecule in question is CCCN(C)c1nc(C(C)c2c(F)cccc2F)cc(=O)[nH]1 (stereo unspecified)
(A) > 81 µM

(Q) I'd like to know its CC50 at 96 h. The molecule in question is Cc1c(C(C)c2c(F)cccc2F)nc(N2CCC(C)CC2)[nH]c1=O (stereo unspecified)
(A) 54 µM

(Q) I'd like to know its CC50 at 96 h. The molecule in question is Cc1c(C(C)c2c(F)cccc2F)nc(N2CCCCC2)[nH]c1=O (stereo unspecified)
(A) > 75 µM

###

- subject.of.test: Human immunodeficiency virus type 1 reverse transcriptase (Human immunodeficiency virus 1, UniProt Q72547, Y188L)
- protocol: Inhibition of HIV1 reverse transcriptase Y188L mutant
# Ki values compiled below
Give just the numeric value; µM need not be written.

Consider the following illustrative entries.
compound: Cc1c(C(C)c2c(F)cccc2F)nc(N(C)C(C)C)[nH]c1=O (stereo unspecified)
readout.units: µM
observed.value: 1.19
--
compound: CCCNc1nc(C(C)c2c(F)cccc2F)c(C)c(=O)[nH]1 (stereo unspecified)
readout.units: µM
observed.value: 3.11
--
compound: Cc1c(C(C)c2c(F)cccc2F)nc(N(C)C)[nH]c1=O (stereo unspecified)
readout.units: µM
observed.value: 0.5

(Q) I'd like to know its Ki. The compound in question is Cc1c(C(C)c2c(F)cccc2F)nc(SC2CCCC2)[nH]c1=O (stereo unspecified)
(A) 1.4

(Q) I'd like to know its Ki. The compound in question is O=c1cc(Cc2c(F)cccc2F)nc(N2CCSCC2)[nH]1
(A) 1

(Q) I'd like to know its Ki. The compound in question is CN(C)c1nc(Cc2c(F)cccc2F)cc(=O)[nH]1
(A) 30

(Q) I'd like to know its Ki. The compound in question is Cc1c(C(C)c2c(F)cccc2F)nc(N2CCOCC2)[nH]c1=O (stereo unspecified)
(A) 5.5

(Q) I'd like to know its Ki. The compound in question is Cc1c(Cc2c(F)cccc2F)nc(N2CCN(c3ccccn3)CC2)[nH]c1=O
(A) 0.49
